These entries and their values trace back to a melting point compilation (Tetko et al.).

# melting point listing for each entry below

> print(dat)
                                   compound         result
1               Cc1ccc(S(C)(=O)=O)cc1C(=O)O  204 to 206 °C
2               CC(=O)Nc1ccc(Br)c(C(=O)O)n1  189 to 191 °C
3               CCOC(=O)CCOc1ccc(C(C)=O)cc1    55 to 57 °C
4  O=C(O)C(c1ccccc1)C1CC1 (configuration not stated)    84 to 86 °C
5  CC(CC(=O)O)NC1=NS(=O)(=O)c2ccccc21 (configuration not stated)  245 to 247 °C

[ask] Tell us which melting point value is on record for O=c1[nH]c(CCl)nc2scc(-c3cccs3)c12
[reply] 219 to 221 °C

[ask] Tell us which melting point value is on record for O=C(O)C1(c2cccc(Cl)c2)CC1
[reply] 135 to 137 °C

###

# melting point listing for each entry below

Record excerpt, results attached:
> print(dat)
                             compound  recordedmetric         result
1   O=C(O)Cn1ccc(=O)c([N+](=O)[O-])c1   melting point  249 to 251 °C
2           O=[N+]([O-])c1ccc(O)cc1Cl   melting point  115 to 117 °C
3  CC(=O)c1cc(C(=O)C(Cl)(Cl)Cl)n(C)c1   melting point  133 to 135 °C
4              Cc1ccc(NCCC(=O)O)cc1Cl   melting point    80 to 82 °C
5                CS(=O)(=O)c1ccccc1NN   melting point    75 to 77 °C

[ask] Tell us which melting point value is on record for Cc1sc(N)c(C#N)c1C
[reply] 134 to 136 °C

[ask] Tell us which melting point value is on record for Cc1cnc(=S)[nH]c1
[reply] 239 to 241 °C

[ask] Tell us which melting point value is on record for CCN(CC)S(=O)(=O)c1ccc(N2CCCCC2)c(C(=O)O)c1
[reply] 157 to 159 °C

[ask] Tell us which melting point value is on record for O=Cc1ccc(OCc2cscn2)cc1
[reply] 78 to 80 °C

[ask] Tell us which melting point value is on record for CCc1cccc2c(C(=O)CC#N)c[nH]c12
[reply] 178 to 180 °C

[ask] Tell us which melting point value is on record for CCc1ncc(N)cn1
[reply] 125 to 127 °C

[ask] Tell us which melting point value is on record for NCc1ccc(C(=O)NCC(N)=O)cc1
[reply] 199 to 201 °C

[ask] Tell us which melting point value is on record for O=C(O)c1ccc(-n2cncn2)nc1
[reply] 341 to 343 °C

[ask] Tell us which melting point value is on record for NCc1nc(-c2ccsc2)no1
[reply] 134 to 136 °C

[ask] Tell us which melting point value is on record for Cc1ccc(C)n1CC(=O)O
[reply] 99 to 101 °C

[ask] Tell us which melting point value is on record for COC(=O)c1ccc2[nH]cc(C=O)c2c1
[reply] 230 to 232 °C

[ask] Tell us which melting point value is on record for CC1Oc2ccccc2OC1C(=O)O (centres undefined)
[reply] 106 to 108 °C

[ask] Tell us which melting point value is on record for Nc1cc(F)c(OC2CCCCC2)cc1C(=O)O
[reply] 159 to 161 °C

[ask] Tell us which melting point value is on record for NC(=O)c1ccc(CCl)cc1
[reply] 178 to 180 °C

[ask] Tell us which melting point value is on record for COc1ccc2c(c1)CC(=O)NCC2
[reply] 151 to 153 °C

[ask] Tell us which melting point value is on record for Nc1cc(-c2cc(F)cc(F)c2)no1
[reply] 114 to 116 °C

[ask] Tell us which melting point value is on record for N#Cc1ccc(-n2cc(C#N)c(N)n2)c(F)c1
[reply] 258 to 260 °C

[ask] Tell us which melting point value is on record for O=C(O)CSCC(=O)Nc1ccc(F)cc1
[reply] 125 to 127 °C

[ask] Tell us which melting point value is on record for O=C1CCC2(CC1)NC(=O)NC2=O
[reply] 199 to 201 °C

[ask] Tell us which melting point value is on record for CCc1ccccc1N(C(C)=O)c1nc(CN=C=S)cs1
[reply] 96 to 98 °C

[ask] Tell us which melting point value is on record for COc1ccc(C(=O)O)cc1OCCO
[reply] 190 to 192 °C

[ask] Tell us which melting point value is on record for Cc1nnc(CO)o1
[reply] 129 to 131 °C

[ask] Tell us which melting point value is on record for CC(C)(NC(=O)c1ccccc1)C(N)=S
[reply] 165 to 167 °C

[ask] Tell us which melting point value is on record for CC(=O)Nc1ccc(N)c(Br)c1
[reply] 79 to 81 °C

###

# melting point listing for each entry below

> print(dat)
                                   molecule         result
1     Cc1ccc(S(=O)(=O)N2CCCCC2)cc1NC(=O)CCl  107 to 109 °C
2                          Brc1cnc2nccnc2c1  158 to 160 °C
3                    Oc1ccccc1-c1nc(CCl)no1    76 to 78 °C
4                O=C(CCl)Nc1nnc(-c2ccco2)o1  194 to 196 °C
5                   CCOc1cccc(CNC(=O)CCl)c1    97 to 99 °C
6     O=C(O)c1cc(S(=O)(=O)NCCN2CCCC2)ccc1Cl  279 to 281 °C
7  CC(C)(C)OC(=O)N1CCNC(C#N)C1 (stereo not given)  109 to 111 °C
8                   COC(=O)c1c[nH]c2ncccc12  208 to 210 °C

Then there is this molecule:
[ask] Tell us which melting point value is on record for O=C(O)Cc1csc(-c2ncccn2)n1
[reply] 173 to 175 °C

###

# melting point listing for each entry below

Record excerpt, results attached:
> print(dat)
                         molecule  recordedmetric         result
1  C#CCNS(=O)(=O)c1cccc(C(=O)O)c1   melting point  168 to 172 °C
2            CCOC(=O)Nc1ccc(O)cc1   melting point  124 to 126 °C
3                 OCc1ccc(F)cc1Br   melting point    69 to 71 °C
4    Cc1ccc2c(CC(=O)O)cc(=O)oc2c1   melting point  209 to 211 °C
5         O=C1CCC(O)(C(F)(F)F)CC1   melting point  123 to 125 °C

[ask] Tell us which melting point value is on record for CC(=Cc1ccc(Br)o1)[N+](=O)[O-]
[reply] 89 to 91 °C

[ask] Tell us which melting point value is on record for C#CCN1C(=O)C=CC1=O
[reply] 46 to 48 °C

[ask] Tell us which melting point value is on record for N#Cc1ccc(S(=O)(=O)N2CCOCC2)cc1
[reply] 158 to 160 °C

[ask] Tell us which melting point value is on record for COc1cc2c(cc1OC)CN(C(N)=O)CC2
[reply] 198 to 200 °C

###

recordedMetric: melting point

> print(dat)
                              compound         result
1                   NS(=O)(=O)CC1CCCC1    42 to 44 °C
2             CC(C)(C)c1cn2nc(Br)sc2n1  105 to 107 °C
3                     COc1ccc(Cl)cc1CO    56 to 61 °C
4           N#Cc1c(F)cccc1Oc1ccc(N)cc1  156 to 158 °C
5  O=C(Nc1sc2c(c1C(=O)O)CCCC2)c1cccnc1  239 to 241 °C

[ask] Tell us which melting point value is on record for Cn1c(Cl)nnc1-c1ccc(Cl)cc1
[reply] 179 to 181 °C

[ask] Tell us which melting point value is on record for Cc1cc(N)ccc1NC(=O)CN1CCCC1=O
[reply] 209 to 211 °C

[ask] Tell us which melting point value is on record for CSc1ccc2cc(CCl)c(Cl)nc2c1
[reply] 151 to 153 °C

###

recordedMetric: melting point

> print(dat)
                                    compound  recordedmetric         result
 1              Cc1ccc(C)n1-c1nc(CC(=O)O)cs1   melting point  100 to 102 °C
 2                            ONCc1ccc(F)cc1   melting point    59 to 61 °C
 3   COc1ccc(C2(c3ccc(OC)cc3)NC(=O)NC2=O)cc1   melting point  237 to 239 °C
 4        Cc1ccc(-n2c(-c3ccccc3)cnc2S)c(C)c1   melting point  247 to 249 °C
 5  OC1C2CCCC1CN(Cc1ccccc1)C2 (stereo not drawn)   melting point    88 to 90 °C
 6     O=Cc1ccc(-c2ccc([N+](=O)[O-])cc2Br)o1   melting point  132 to 136 °C
 7            CC(=O)CN1C(=O)c2ccccc2S1(=O)=O   melting point  144 to 146 °C
 8                         CNc1ccc(OCCOC)cc1   melting point    59 to 61 °C
 9                    OCC1(NCCc2ccccc2)CCCC1   melting point    86 to 88 °C
10                        Nc1ccc(N2CCCC2)nc1   melting point    83 to 85 °C

[ask] Tell us which melting point value is on record for Cc1ccc(Cn2nc(C)c(CCC(=O)O)c2C)cc1
[reply] 134 to 136 °C

[ask] Tell us which melting point value is on record for N#CCC(=O)Nc1ccc(C(=O)O)cc1
[reply] 195 to 197 °C

[ask] Tell us which melting point value is on record for COc1cc(C(=O)O)cc(CC(C)Cl)c1OC (stereo not drawn)
[reply] 103 to 105 °C
